Tested on: Curvularia lunata
protocol text: Antifungal activity against Curvularia lunata at 100 ug/disk after 48 hrs by disk diffusion method
Assay type: functional
assay conditions: read-out: IZ
The entries below come with measured zone of inhibition at 100 µg/disc values attached.
Write it as a number; the unit mm goes unstated.

O=S(=O)(CC1=NCCO1)c1c[nH]cc1S(=O)(=O)c1ccccc1	19
Cc1ccc(S(=O)(=O)c2c[nH]cc2S(=O)(=O)CC2=NCCS2)cc1	28

Okay, now this compound:
Query: zone of inhibition at 100 µg/disc; subject: `Cc1ccc(S(=O)(=O)c2c[nH]cc2S(=O)(=O)CC2=NCCO2)cc1`
17

###

Tested on: Aspergillus niger
protocol text: Antifungal activity against Aspergillus niger at 200 ug/disk after 48 hrs by disk diffusion method
Type: functional
assay conditions: read-out: IZ
Assign label 1 whenever zone of inhibition at 200 µg/disc does not fall below 20 mm; assign label 0 whenever it does.

Consider the worked cases shown below.
O=S(=O)(/C=C/S(=O)(=O)c1ccccc1)CC1=NCCO1	label 0
O=S(=O)(CC1=NCCO1)c1c[nH]cc1S(=O)(=O)c1ccccc1	label 1
O=S(=O)(/C=C/S(=O)(=O)c1ccccc1)CC1=NCCS1	label 1

Check the entry CC(=O)N1CCN(c2ccc(OCC3COC(Cn4ccnc4)(c4ccc(Cl)cc4Cl)O3)cc2)CC1 (stereo not given) : does zone of inhibition at 200 µg/disc equal or exceed 20 mm?
label 1

Record `Cc1ccc(S(=O)(=O)c2c[nH]cc2S(=O)(=O)CC2=NCCO2)cc1` ; criterion: zone of inhibition at 200 µg/disc no lower than 20 mm. Met?
label 1

###

Test system: Bacillus subtilis
protocol text: Antibacterial activity against Bacillus subtilis at 200 ug/disk after 24 hrs by disk diffusion method
Format: functional
assay conditions: read-out: IZ
Returns one of Met or Not met; Met when zone of inhibition at 200 µg/disc is >= 20 mm.

O=S(=O)(CC1=NCCS1)c1c[nH]cc1S(=O)(=O)c1ccc(Cl)cc1	Met
O=S(=O)(CC1=NCCS1)c1c[nH]cc1S(=O)(=O)c1ccccc1	Met
Cc1ccc(S(=O)(=O)/C=C/S(=O)(=O)CC2=NCCS2)cc1	Met
O=S(=O)(/C=C/S(=O)(=O)c1ccccc1)CC1=NCCS1	Met

Check the entry `O=S(=O)(/C=C/S(=O)(=O)c1ccccc1)CC1=NCCO1` : does zone of inhibition at 200 µg/disc equal or exceed 20 mm?
Not met

Determine whether measured zone of inhibition at 200 µg/disc meets or exceeds 20 mm for `Cc1ccc(S(=O)(=O)c2c[nH]cc2S(=O)(=O)CC2=NCCO2)cc1`
Not met

Please indicate if the recorded zone of inhibition at 200 µg/disc for `O=S(=O)(/C=C/S(=O)(=O)c1ccc(Cl)cc1)CC1=NCCO1` meets or exceeds 20 mm.
Not met

Would you say `O=S(=O)(CC1=NCCO1)c1c[nH]cc1S(=O)(=O)c1ccc(Cl)cc1` shows zone of inhibition at 200 µg/disc at minimum 20 mm?
Not met

Test whether the compound `Cc1ccc(S(=O)(=O)/C=C/S(=O)(=O)CC2=NCCO2)cc1` records zone of inhibition at 200 µg/disc of 20 mm or higher.
Not met

I'd appreciate it if you could say whether `O=S(=O)(CC1=NCCO1)c1c[nH]cc1S(=O)(=O)c1ccccc1` has zone of inhibition at 200 µg/disc at least equal to 20 mm.
Not met

meta.source: ChEMBL document CHEMBL1177891
